test name: folding stability dG unfold from trypsin proteolysis; higher = more stable
Quick list: folding stability dG unfold per entry.
The answer is to be given in kcal/mol; state only the numeric part.

Query: Endpoint output: folding stability dG unfold of SAGGSDTVVLDFTVTVDGKPYTVRVTLTRNPPTGEITVPVEIESANPEDAVPAREVADALVERLLSSAGGSA [r2_259_TrMRF] . Value?
Reply: 1.21

Next:
Query: Endpoint output: folding stability dG unfold of SAGGSNPGDPEQVPKVKIKITYPDNGKEFTIPVEELRNGPIEEAVSEIANEARERYPGHPLRIEPVSAGGSA [r2_392_TrROS] . Value?
Reply: -0.836

Query: Endpoint output: folding stability dG unfold of SAGGSAGGSAGGSMVIRNENGYLIEVKTEVVVDEETKKKYVKTEIRIYKEGEEKELPEESAGGSAGGSAGGS [r4_48_TrROS_Hall] . Value?
Reply: 0.369

Query: Endpoint output: folding stability dG unfold of SAGGSAGGSAGGETITIKNKKTNETVTIEKDKDGNYTITYPDGSKKTYKKGEKISKSALSAGGSAGGSAGGS [r10_98_TrROS_Hall] . Value?
Reply: 0.162

====

test name: folding stability dG unfold from trypsin proteolysis; higher = more stable
Assign Yes to entries whose folding stability dG unfold meets or exceeds 2 kcal/mol; assign No to the rest.

Below are worked cases with known answers.
Query: Given SAGGSAGGSAGGGSMTLTEVFVDPETGTRTVRTTTLYTLPNGTLTSTTTTTVEPLPGELSAGGSAGGSAGGS [r10_1258_JUSTAS] , state whether its folding stability dG unfold is at least 2 kcal/mol.
Reply: No

Query: Given SAGGSAGGSAMKTIPVKTKEEAEKLAEELKASGYGEVKKTKSGNIIVKAPDGIDVKIVVPEKSAGGSAGGSA [r18_126_JUSTAS] , state whether its folding stability dG unfold is at least 2 kcal/mol.
Reply: No

Query: Given SAGGSAGGSADIGDPSKIKPKPLHFSFPVKIKLSFEYNGPDGVKKTFSLELTFTVVDKGLGSAGGSAGGSAG [r3_380_TrMRF] , state whether its folding stability dG unfold is at least 2 kcal/mol.
Reply: Yes

Query: Given SAGGSAGGSAGMKPNEPDLVLLTTTVTLTTTETTTDEDGNTYTTTTTTTLTTTTLLPRGTSAGGSAGGSAGG [r17_523_TrROS_Hall] , state whether its folding stability dG unfold is at least 2 kcal/mol.
Reply: Yes

Query: Given SAGGSMDLRVVVVGEDGKVLELPAGEEVSLPDVVAFFSELGDFEVEAHPESGTLTIRVPKGVLEEASAGGSA [r2_164_TrMRF] , state whether its folding stability dG unfold is at least 2 kcal/mol.
Reply: No

Next:
Query: Given SAGPVKIQIEPDNGEEFEFRLPPNVSEIETSGDKFIIRFPPGMMFKIEIDEELPPGDTVPIRILDIVPSAGG [r19_274_TrROS] , state whether its folding stability dG unfold is at least 2 kcal/mol.
Reply: No

====

test name: folding stability dG unfold from chymotrypsin proteolysis; higher = more stable
Quick list: folding stability dG unfold per entry.
The answer is to be given in kcal/mol; state only the numeric part.

Completed entries (count: 3):
Query: Endpoint output: folding stability dG unfold of SAGMEELAEELAKELEGEGLKVEVEVDPETGVVTVTAYSPESVTVVTITQDPNNDAFTVNTTTYPPLLSAGG [r19_2_JUSTAS] . Value?
Reply: 2.95

Query: Endpoint output: folding stability dG unfold of SAGGMKIKLKDGSEITIGSEPGRLVIVLRPPGPRSRKVIPFPVPSKEHGFVAAVNELLSLEDIEEIEPSAGG [r13_579_TrMRF] . Value?
Reply: 1.34

Query: Endpoint output: folding stability dG unfold of SAGLKVEIFPMDGTEQTIPIPAEDADPLVDEFQDNGFKVDNVEVDPDGEVWIPIKFPNGRPWMIEIDWESAG [r5_645_TrROS] . Value?
Reply: -0.0946

Next:
Query: Endpoint output: folding stability dG unfold of MKIIDVVPTPDGLIVVIKVVFPNTEEAYVSASDLDKLIKEIFERFGVKPEYLKITDIKAFSPEELKEFLEES [r1_119_TrMRF] . Value?
Reply: 2.98

Query: Endpoint output: folding stability dG unfold of SAKTKTIEIEVKIKLIEIDPKTGKKTEKEFTAKATITYDEENNVVTIKIEFKDNGKTITITLPPGAKIKSAG [r14_587_TrROS_Hall] . Value?
Reply: 2.25

Query: Endpoint output: folding stability dG unfold of SAGGSAVPAEAKKKVFLKPVKVNIPLPGNYEIVEIDPKTGKIVIKVPGSSKTLVVDLKSGKVYEFGSAGGSA [r15_452_TrMRF] . Value?
Reply: 1.78

Query: Endpoint output: folding stability dG unfold of SAGKFKITNISPMEERKPEDDKWEEQPYIMIRMRWKDPQKALDEIKEEFGYPVNIQRDPDDGWATIMIPSAG [r5_907_TrROS] . Value?
Reply: 0.231

====

Quick list: folding stability dG unfold per entry.
test name: folding stability dG unfold from chymotrypsin proteolysis; higher = more stable
The answer is to be given in kcal/mol; state only the numeric part.

Query: Endpoint output: folding stability dG unfold of SADTLTVSDLMHKLMEEERKKNPEPWSPEDMQEWAKTAARKLADKEGIPIKDVEVEPTDGYPSITVKVPSAG [r14_147_TrROS] . Value?
Reply: -0.691

Query: Endpoint output: folding stability dG unfold of SAGGSAKEWVWVISIKYRYPNGEPLAPIPIMIPPDDPEIDIDEIADEIARKHGLDEIEVNIHPIPVSAGGSA [r15_333_TrROS] . Value?
Reply: 2.03

Query: Endpoint output: folding stability dG unfold of SAGGMTLNITVEIPGLGTTITKTFSANPSDYEKIARETEEENPEYKLTSVKVTYSPNSITIDATVELVSAGG [r13_196_JUSTAS] . Value?
Reply: 2.38

Query: Endpoint output: folding stability dG unfold of SAGGGPAKEVPILALIKARNPETGEEYELPIVITANSKEDVEAAKGLVDTLAEALRELGFTEVEVEIGSAGG [r13_360_TrMRF] . Value?
Reply: 2.72

Query: Endpoint output: folding stability dG unfold of SAGGSAGGSASVKELAEKLAEPGQTVMVIKRDGKEYLIVMSDEEAEALRKLFPDMEIERVRLSAGGSAGGSA [r18_198_TrROS_Hall] . Value?
Reply: 1.93

Next:
Query: Endpoint output: folding stability dG unfold of SANIQIMIEDWDPERGWIRISIQVDKGDPDKPITPELVNNIRELFRFRGIEVNIEVHPDGMVNIEIPIPSAG [r14_865_TrROS] . Value?
Reply: 4.59

Query: Endpoint output: folding stability dG unfold of SAGEPLGPEKAKELAEELVERVAREIAERLGLAPEEVEVVSVELTPDGRLVLTLRVPEREFTFVFPVEGSAG [r5_565_TrMRF] . Value?
Reply: 4.89

====

test name: folding stability dG unfold (combined trypsin and chymotrypsin); higher = more stable
Quick list: folding stability dG unfold per entry.
The answer is to be given in kcal/mol; state only the numeric part.

Completed entries (count: 6):
Query: Endpoint output: folding stability dG unfold of SAGGSAGGSDKIRKALKELGYPYEIDNIDVNVTKNGNPEIEIKYSPGMPPQDQKRIKRAVIDLSAGGSAGGS [r12_352_TrROS] . Value?
Reply: -0.469

Query: Endpoint output: folding stability dG unfold of SAGGSAGGSAGGLWLTFNFRLTFFNPDGQAMEIEIPIEIRIPPPPVTVPDPDGEEYKYDSAGGSAGGSAGGS [r10_330_TrROS] . Value?
Reply: 2.87

Query: Endpoint output: folding stability dG unfold of SAGGSAGGSAGGMPGVTTTSTTTTTLPNGTVVTTTTTTVLLPTGTTVTVTVTTTTSATTSSAGGSAGGSAGG [r11_274_JUSTAS] . Value?
Reply: 2.68

Query: Endpoint output: folding stability dG unfold of SAGGKKIVLFVGPPELVEELKKAYPDLPFVPIPVEVLENPEPAAEIIKELKEKGYEVVVYNFPDLKESAGGS [r8_376_TrMRF] . Value?
Reply: 2.21

Query: Endpoint output: folding stability dG unfold of SAGGSAGGSAGGSPVRVKLKFKKKFTVLLPLTDEDDEILDVEKEYTVEITLEVTLPPDLSAGGSAGGSAGGS [r4_326_TrMRF] . Value?
Reply: 4.01

Query: Endpoint output: folding stability dG unfold of SAIVIPIRVQMPPNDPDALEQAKEIADYIADMMMEEGYPFKIEVDDIEWERNPNGHWTVEIPIKIKPPPSAG [r14_48_TrROS] . Value?
Reply: 1.38

Next:
Query: Endpoint output: folding stability dG unfold of SAGGSAVKIDPKTKVIEVKNPETGETYRISLPDVPPEDGVEVEVGDDKIIIKTPKGTKEIPIDKAKSAGGSA [r15_864_TrMRF] . Value?
Reply: 0.529

Query: Endpoint output: folding stability dG unfold of SAGPTFEIVSVEEVDGKTYIRIRLPNGRIVTARITEVKRLGPDGKLYIKVEPGMSEEELKALLPPEVLKSAG [r5_462_TrROS_Hall] . Value?
Reply: 2.63

Query: Endpoint output: folding stability dG unfold of SAGGSAMTKEEAKEYAEKRVKEEHPGWTVLGVEVTELPGKEVLTKVTVKPPENPDKTLEFEFKFPLSAGGSA [r15_627_JUSTAS] . Value?
Reply: 2.54
